Origin of measurements: patent US20090018118A1

- Test system: cholesterol biosynthesis in HepG2 cells
- assay name: Metabolic labeling of HepG2 cells with [3H]acetate; radio-HPLC sterol profile (inhibition of cholesterol biosynthesis)
- Format: cell-based, human
- condition info: Homo sapiens, 24 h; Table I; 10 μM compound, HepG2; sterol level normalized to normal medium (1.00); mean of 4 experiments; read-out: zymosterol+7-dehydrocholesterol
Counter-ions that a name gives are not always drawn.
readout kind: activity at 10 µM (%)
The figure you give is taken to be in %; do not add the unit.

Here's what some known entries look like.
| compound | measured |
| --- | --- |
| COc1ccc(CN2CCN(CCc3ccccc3)CC2)cn1 [LK-9106, trihydrobromide] | 46 |
| Clc1ccc(CCN2CCN(CCc3ccccn3)CC2)cc1Cl [LK-9137, trihydrobromide] | 141 |
| Cc1ccc(C(O)CN2CCN(CCc3ccccc3)CC2)cn1 (stereo not drawn) [LK-9139, trihydrobromide] | 38 |
| c1ccc(CCN2CCN(Cc3cccnc3)CC2)cc1 [LK-9108, trihydrobromide] | 140 |

Ask: Provide activity at 10 µM, recorded with cholesterol biosynthesis in HepG2 cells, of c1ccc(CCN2CCN(CCCc3cccnc3)CC2)cc1 [LK-9140, trihydrobromide]
Reply: 15

Ask: Provide activity at 10 µM, recorded with cholesterol biosynthesis in HepG2 cells, of O=C(Cc1cccnc1)N1CCN(CCc2ccccc2)CC1 [LK-9101B]
Reply: 155

Ask: Provide activity at 10 µM, recorded with cholesterol biosynthesis in HepG2 cells, of OC(CN1CCN(CCc2ccccc2)CC1)c1ccncc1 (stereo not drawn) [LK-9110B]
Reply: 137

Ask: Provide activity at 10 µM, recorded with cholesterol biosynthesis in HepG2 cells, of OC(CN1CCN(Cc2ccc(F)cc2)CC1)c1cccnc1 (stereo not drawn) [LK-9148, trihydrobromide]
Reply: 144

Ask: Provide activity at 10 µM, recorded with cholesterol biosynthesis in HepG2 cells, of OC(CN1CCN(CCc2ccccc2)CC1)c1cccnc1 (stereo not drawn) [LK-980, trihydrobromide]
Reply: 102
